# test.system: MEC-4 homomeric channel (A713wt), coexpressed with MEC-2 (Caenorhabditis elegans)
# Sequence (P24612 whole entry): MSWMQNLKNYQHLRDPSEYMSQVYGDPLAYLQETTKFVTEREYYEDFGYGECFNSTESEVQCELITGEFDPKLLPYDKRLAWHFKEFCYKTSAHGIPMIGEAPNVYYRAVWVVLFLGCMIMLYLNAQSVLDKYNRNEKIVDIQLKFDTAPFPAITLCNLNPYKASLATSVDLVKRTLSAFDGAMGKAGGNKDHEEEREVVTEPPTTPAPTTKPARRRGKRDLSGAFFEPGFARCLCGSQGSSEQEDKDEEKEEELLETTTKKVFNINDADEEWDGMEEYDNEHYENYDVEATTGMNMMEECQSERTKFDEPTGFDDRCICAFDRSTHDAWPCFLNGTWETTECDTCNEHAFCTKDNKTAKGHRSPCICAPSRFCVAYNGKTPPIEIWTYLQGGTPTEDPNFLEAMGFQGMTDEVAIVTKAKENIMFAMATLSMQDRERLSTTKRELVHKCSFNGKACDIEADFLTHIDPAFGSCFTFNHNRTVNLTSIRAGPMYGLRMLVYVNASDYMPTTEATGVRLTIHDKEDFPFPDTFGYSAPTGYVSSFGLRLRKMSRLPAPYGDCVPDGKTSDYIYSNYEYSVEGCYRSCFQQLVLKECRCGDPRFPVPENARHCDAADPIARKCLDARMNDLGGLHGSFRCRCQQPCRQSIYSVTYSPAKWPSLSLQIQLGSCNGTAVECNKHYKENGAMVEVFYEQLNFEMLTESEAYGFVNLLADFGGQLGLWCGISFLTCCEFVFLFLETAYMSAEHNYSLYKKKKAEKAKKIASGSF
# Sequence (Q27433 whole entry partner): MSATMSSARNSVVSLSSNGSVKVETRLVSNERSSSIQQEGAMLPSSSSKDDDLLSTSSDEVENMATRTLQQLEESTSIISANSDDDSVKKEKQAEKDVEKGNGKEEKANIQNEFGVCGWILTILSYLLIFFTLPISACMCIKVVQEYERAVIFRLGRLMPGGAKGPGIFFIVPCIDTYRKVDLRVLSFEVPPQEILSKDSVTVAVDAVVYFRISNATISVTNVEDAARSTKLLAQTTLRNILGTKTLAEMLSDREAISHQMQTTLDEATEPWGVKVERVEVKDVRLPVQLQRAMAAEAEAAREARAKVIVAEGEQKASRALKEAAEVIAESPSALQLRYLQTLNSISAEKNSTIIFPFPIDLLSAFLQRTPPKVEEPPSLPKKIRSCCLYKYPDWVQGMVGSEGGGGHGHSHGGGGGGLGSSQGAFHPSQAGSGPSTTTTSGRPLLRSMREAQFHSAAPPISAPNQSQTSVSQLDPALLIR
# method: two-electrode voltage clamp, oocytes, dose-response of current block
measured.attribute: Ki (µM)

P = NC(=NCc1ccccc1)NC(=O)c1nc(Cl)c(N)nc1N
Q = N=C(N)c1ccccc1
Endpoint returns whichever of P and Q has the numerically higher Ki. Label of pick, please.
Q
